Literature IC50 values, system: Tyrosine-protein kinase JAK3 (Homo sapiens, UniProt P52333).

For every listed record, write down its IC50.
1. CS(=O)(=O)c1cccc(-c2ccnc3[nH]cc(C(=O)c4ccccc4F)c23)c1
2. CNC(=O)c1cnc(-c2cnc3[nH]ccc3c2N[C@@H]2CCCN(C(=O)CC#N)C2)s1
3. CC(=O)N1CC(CC#N)(n2cc(-c3nc(-c4cnn(C)c4)cc4nccn34)cn2)C1

≤ 10000 nM
≤ 10 nM
> 1000 nM

For every listed record, write down its IC50.
1. O=c1[nH]c2c(Oc3cccnc3)nc(-n3cnc4ccc(F)cc43)nc2n1C1CCOCC1
2. CCC(CC)n1cc(-c2nc(-c3cnn(C[C@@H](O)CC)c3)cn3nccc23)cn1
3. CCC(CC)n1cc(-c2nc(-c3cnn(C[C@H](O)CN4CCCC4)c3)cn3nccc23)cn1
4. CN(C/C=C/C(=O)N1CC[C@@H](n2nc(-c3ccc(C(=O)Nc4nccs4)cc3)c3c(N)ncnc32)C1)C1CC1
5. CCOCCC1(n2cc(-c3nc(-c4cnn(C)c4)cc4nccn34)cn2)CN(S(=O)(=O)C(F)(F)F)C1
6. CS(=O)(=O)N(CC#N)c1ccc(-c2ccnc(Nc3ccc(N4CCOCC4)c(C#N)c3)n2)cc1
7. O[C@@H]1CC[C@@H](n2c(-c3cncnc3)nc3cnc(-n4cnc5ccc(F)cc54)nc32)c2ccccc21

1. < 100 nM
2. 1000 to 10000 nM
3. 1000 to 10000 nM
4. < 100 nM
5. 100 to 1000 nM
6. > 1000 nM
7. < 100 nM

For every listed record, write down its IC50.
1. CCC(=O)c1cnc(Nc2ccc(C(C)N)cn2)cc1Nc1cccc(-c2ncn(C)n2)c1OC (stereo not drawn)
2. N#CCC(C1CC1)n1cc(-c2nc(C(=O)Nc3ccccn3)cc3nccn23)cn1 (stereo not drawn)

≥ 500 nM
> 1000 nM

###

Literature IC50 values, system: Tyrosine-protein kinase JAK3 (Homo sapiens).

Known IC50 results, listed for orientation:
C=CC(=O)N1CC[C@@H](Nc2nc(Nc3cnn(C(C)C)c3)nc3ccsc23)C1 :: 10 to 100 nM
CC#CC(=O)N1CCC[C@H]1c1nc(-c2ccc(Oc3ccccc3)cc2)c2c(N)nccn12 :: > 1000 nM
CNC(=O)c1coc(-c2cnc3[nH]ccc3c2N[C@H]2C[C@@H](C)CN(C(=O)CC#N)C2)n1 :: 10 to 100 nM
N#Cc1ccc2ncn(-c3ncc4nc(-c5cncnc5)n([C@@H]5CCOc6ccccc65)c4n3)c2c1 :: < 100 nM
Clc1cnc2nc1NCc1cc(ccc1Br)OCCCc1cccc(c1)N2 :: 57 nM
Cc1ccnc(NC(=O)c2ccc(Oc3ccnc4[nH]nc(N[C@@H]5CCCN(C(=O)c6ccc(Cl)cc6)C5)c34)cc2)c1 :: > 10000 nM

For every listed record, write down its IC50.
1. Cc1cn(-c2cc3nccn3c(-c3cnn(C(CC#N)C4CC4)c3)n2)cn1 (centres unmarked)
2. N#CCC(=O)N1CCC[C@@H](Nc2c(C(=O)OCC3CC3)cnc3[nH]ccc23)C1

> 1000 nM
10 to 100 nM

###

Literature IC50 values, system: Tyrosine-protein kinase JAK3 (Homo sapiens, UniProt P52333).

NC(=O)c1ccc(-c2ccnc3[nH]cc(C(=O)c4ccccc4F)c23)cc1 :: ≤ 10000 nM
CCOC(=O)c1cnc2[nH]ccc2c1N[C@H]1CC[C@H](OC(=O)CC#N)C1 (single isomer, unassigned) :: 10 to 100 nM
C=CC(=O)N1CC(CNc2nc(Nc3cn[nH]c3)nc3ccsc23)C1 :: 10 to 100 nM

For every listed record, write down its IC50.
1. Cn1cc(-c2cn3nccc3c(-c3cnn(C4CCCC4CO)c3)n2)cn1 (centres unmarked)
2. Cc1nc2cnc(-n3cnc4ccccc43)nc2n1Cc1ccccc1
3. Cc1nc(NC(=O)c2ccc(Oc3ccnc4[nH]nc(N[C@@H]5CCCN(C(=O)/C=C/CN(C)C6CC6)C5)c34)cc2)sc1C
4. N#Cc1ccc2ncn(-c3nc(N4CC(O)C4)c4[nH]c(=O)n(C5CCOCC5)c4n3)c2c1
5. C=CC(=O)N1CC(CNc2nc(Nc3cnn(C4CCC4)c3)nc3ccsc23)C1
6. CN(C)C(=O)c1coc(-c2cnc3[nH]ccc3c2N[C@@H]2CCCN(C(=O)CC#N)C2)n1

1. 1000 to 10000 nM
2. > 1000 nM
3. 1000 to 10000 nM
4. < 100 nM
5. 10 to 100 nM
6. ≤ 10 nM

For every listed record, write down its IC50.
1. Cn1cc(-c2cc3nccn3c(-c3cnn(C4(CC#N)COC4)c3)n2)cn1
2. CCC(Cn1ccc2cnc(Nc3cnn(CC(=O)OC(C)C)c3)nc21)C(C)C (centres unmarked)
3. Cc1ccc(C(=O)Nc2nnc(C(F)(F)F)s2)cc1-c1ccc2c(c1)[nH]c1ncncc12
4. C=CC(=O)Nc1cccc(Nc2cc(Nc3ccccc3)ncn2)c1
5. N#CCC(C1CC1)n1cc(-c2nc(-c3ccc(N4CCOCC4)cc3)cc3nccn23)cn1 (centres unmarked)
6. CC[C@H](C(=O)Nc1nccc2c(-c3nc(Nc4cn(C)nc4OC)ncc3C)c[nH]c12)N1CCN(C)CC1

> 1000 nM
< 100 nM
≤ 500 nM
≤ 10 nM
100 to 1000 nM
< 500 nM

For every listed record, write down its IC50.
1. CCOC(=O)c1cnc2[nH]ccc2c1N[C@@H]1CCCN(CCC#N)C1
2. CC=CCC1(n2cc(-c3nc(-c4cnn(C)c4)cc4nccn34)cn2)CN(S(=O)(=O)C(F)(F)F)C1
3. C=CC(=O)N1CCC[C@@H](n2nc(-c3ccc(Oc4cccc(F)c4)cc3)c3cncnc32)C1
4. CN(c1ncnc2[nH]ccc12)N1CCCC(C(=O)NCC(F)(F)C(F)(F)F)C1 (centres unmarked)

≤ 10 nM
10 to 100 nM
> 500 nM
10 to 100 nM

For every listed record, write down its IC50.
1. CS(=O)(=O)N(CCO)c1ccccc1CNc1nc(-c2cc(F)c(O)cc2CC(F)(F)F)nc2[nH]nc(C(N)=O)c12
2. CN(c1ncnc2[nH]ccc12)C1CC2(C1)CN(C(=O)CCS(C)(=O)=O)C2
3. CCC(=O)c1cnc(Nc2ccc(O[C@H]3CN(C)C[C@@H]3F)cn2)cc1Nc1cccc(-c2ncn(C)n2)c1OC
4. C[C@]1(O)CCCC[C@@H]1Nc1c(C(N)=O)cnn2cc(-c3ccccc3)cc12 (racemic)

1. 51.1 nM
2. 1000 to 10000 nM
3. ≥ 500 nM
4. 5.1 nM

###

Literature pIC50 values, system: Tyrosine-protein kinase JAK3 (Homo sapiens, UniProt P52333).
pIC50: −log10 of the molar value.

Known pIC50 results, listed for orientation:
CCC(=O)c1cnc(Nc2ccc(O[C@@H]3CCN(C)C3)c(C)n2)cc1Nc1cccc(-c2ncn(C)n2)c1OC :: 6.30 to 7.30
CCC(=O)c1cnc(Nc2ccc(CN3[C@H](C)COC[C@@H]3C)cn2)cc1Nc1cccc(-c2ncn(C)n2)c1OC :: 6.30 to 7.30
N#CC1(C(=O)Nc2cccc(Nc3cc(Nc4ccc(F)c(Cl)c4)ncn3)c2)CC1 :: ≤ 5.00
CCC(=O)c1cnc(Nc2nccc(CN(C)C)c2F)cc1Nc1cccc(-c2ncn(C)n2)c1OC :: ≤ 6.30
CCC(=O)c1cnc(Nc2ccc(CNC)cn2)cc1Nc1cccc(-c2ncn(C)n2)c1OC :: ≤ 6.30

For every listed record, write down its pIC50.
1. O=C(NCC(F)(F)F)C1CCC2(CC1)CCN(Nc1ncnc3[nH]ccc13)CC2
2. Cc1cnc(Nc2ccc(N3CCC(N(C)CCO)CC3)c(F)c2)nc1-c1cn(C(C)C)nc1S(C)(=O)=O
3. CCC(=O)c1cnc(Nc2cc(CN3CCCC3)ncn2)cc1Nc1cccc(-c2ncn(C)n2)c1OC
4. CCNC(=O)c1ccc(Nc2nccc(-c3cnn(C4(CC#N)CN(C(=O)[C@@H]5CC5(F)F)C4)c3)n2)cc1

< 6.00
6.99
≤ 6.30
5.89

For every listed record, write down its pIC50.
1. CCCN1CC(CC#N)(n2cc(-c3nc(-c4cnn(C)c4)cc4nccn34)cn2)C1
2. CN(c1ncnc2[nH]ccc12)C1CCC2(CC1)CCN(C(=O)Cc1c[nH]c3ccccc13)CC2
3. Cn1cc(-c2cc3nccn3c(-c3cnn(C4(CC#N)CN(S(C)(=O)=O)C4)c3)n2)cn1
4. Cc1cnc2nc1Nc1cccc(c1)CCNC(=O)c1ccc(cc1)-c1cnc(F)c(c1)N2
5. CCC#CC(=O)N1CC2(CC(n3nc(-c4ccc(Oc5ccccc5)cc4)c4cncnc43)C2)C1
6. CCc1cc(O)c(F)cc1-c1cc2[nH]nc(C(=O)NC)c2c(NCc2cc(Cl)ccc2N(C)S(C)(=O)=O)n1
7. CS(=O)(=O)N1CCC(CNC(=O)c2noc3c2CN(c2ncnc4[nH]ccc24)CC3)C1 (stereo not shown)
8. C=CC(=O)N1CC[C@@H](N(C)c2nc(Nc3cnn(C)c3)nc3ccsc23)C1

1. < 6.00
2. 6.00 to 7.00
3. < 6.00
4. > 8.00
5. < 6.30
6. 7.07
7. 6.30 to 7.00
8. 7.00 to 8.00

For every listed record, write down its pIC50.
1. O=c1[nH]c2c(-c3ccc(F)nc3)nc(-n3cnc4ccc(F)cc43)nc2n1C1CCOCC1
2. Cn1cc(-c2cc3nccn3c(-c3cnn(C(CC#N)c4ccccc4Cl)c3)n2)cn1 (stereo not shown)

> 7.00
6.00 to 7.00
